- target or system: T1, Dimeric Monkey Ang-2FD conjugated to human IgG1 (monkey (Macca fascicularis); human)
- T1 construct: also called Monkey Ang-2FD-hFc
- T1 sequence (chain, as listed by the source limits assumed): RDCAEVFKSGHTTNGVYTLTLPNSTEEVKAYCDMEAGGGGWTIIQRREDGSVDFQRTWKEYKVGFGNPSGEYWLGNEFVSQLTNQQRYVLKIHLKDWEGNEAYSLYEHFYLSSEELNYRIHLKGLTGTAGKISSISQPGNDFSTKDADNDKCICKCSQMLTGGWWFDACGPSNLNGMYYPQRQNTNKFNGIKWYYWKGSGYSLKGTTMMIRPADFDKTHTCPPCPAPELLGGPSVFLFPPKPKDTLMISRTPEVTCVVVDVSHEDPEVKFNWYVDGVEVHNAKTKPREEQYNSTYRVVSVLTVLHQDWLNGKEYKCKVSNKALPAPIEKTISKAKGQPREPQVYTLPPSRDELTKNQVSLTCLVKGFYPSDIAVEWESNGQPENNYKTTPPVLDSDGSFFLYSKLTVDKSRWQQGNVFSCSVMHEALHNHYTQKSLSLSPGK
- assay method text: SPR, captured Ab, RT
Would you mind telling me the reported T1/2 of each entry?
One number for each entry, in h.

[[record]]
binder = "H1H695P (antibody, V domains shown) VH: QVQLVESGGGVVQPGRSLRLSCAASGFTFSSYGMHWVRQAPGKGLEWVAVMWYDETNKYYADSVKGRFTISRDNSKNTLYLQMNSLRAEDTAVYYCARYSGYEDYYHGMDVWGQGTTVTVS VL: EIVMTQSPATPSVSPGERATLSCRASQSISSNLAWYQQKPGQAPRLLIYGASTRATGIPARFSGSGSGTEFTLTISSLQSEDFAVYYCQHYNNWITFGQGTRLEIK"
attribute_measured = "T1/2"
numeric_readout = 1.4

[[record]]
binder = "H1H744N (antibody, V domains shown) VH: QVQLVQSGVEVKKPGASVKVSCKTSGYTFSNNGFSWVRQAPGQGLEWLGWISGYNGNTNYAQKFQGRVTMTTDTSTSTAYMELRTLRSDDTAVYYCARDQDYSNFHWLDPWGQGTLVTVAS VL: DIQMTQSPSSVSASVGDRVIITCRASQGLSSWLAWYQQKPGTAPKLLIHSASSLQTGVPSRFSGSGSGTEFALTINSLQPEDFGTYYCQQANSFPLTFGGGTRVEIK"
attribute_measured = "T1/2"
numeric_readout = 2.73


// next entry
Request: Field request: T1/2 | item: H1H706P (antibody, V domains shown) VH: QVQLVESGGGVVQPGRSLRLSCAASGFTFSSYGMHWVRQAPDKGLEWVAVKWDDGSNKYYADSVKGRFTISRDNSKNTLYLQMNSLRAEDTAVYYCAREGPYDFYSGYGAFDIWGQGTMVTVSS VL: DIQMTQSPSSLSASVGDRVTITCRASQGISNYLAWFQQKPGKAPKSLIYAASSLQSGVPSKFSGSGSGTDFTLTISSLQPEDFATYYCQQYNSYPRTFGQGTKVEIK
Response: 0.888

Where do the numbers come from? From patent US20140112930A1.
